All values here come from patent US20260258084A1.

system: Pancreatin; assay: Protease stability in simulated intestinal fluid (Pancreatin-SIF, FaSSIF); type: in vitro ADME; conditions: 120 min, 1 μM peptide, 37° C., read-out: FaSSIF 120 (min), remaining percent of peptide
Starred links: 1 amine or outer side, 2 acyl side, 3 side chain; linkers in the order of their positions; H or OH if unused. Positions of bridges follow the written chain, without caps; N, C: chain ends. Non-standard residues stand in square brackets, D forms with d. Residues, ends and D or L forms follow the SMILES beside them. *: point of attachment. X1 = O=C(CCCCN[*:3])N[C@@H](CS[*:2])C(=O)[*:1]; 2Nal = N[C@@H](Cc1ccc2ccccc2c1)C(=O)O; Me2NCH2CH2 = CN(C)CC*; Aib = CC(C)(N)C(=O)O; Ava = NCCCCC(=O)O
The following molecules are shown together with reported remaining at 2 h, 1 µM values.
Answer format: numeric, % implied, no suffix.

{"molecule": "CC(=O)N[C@H]1CCCCNC(=O)[C@@H]2CSSC[C@H](NC(=O)[C@H](CCC(N)=O)NC(=O)[C@H](Cc3c[nH]c4ccccc34)NC1=O)C(=O)N[C@@H](Cc1ccc(OCCN(C)C)cc1)C(=O)N[C@@H](Cc1ccc3ccccc3c1)C(=O)NC(C)(C)C(=O)N[C@H](C(=O)N[C@@H](C)C(=O)NCC(N)=O)CCC(=O)NCCCCC(=O)N2 [compound 32] (Ac-KWQCY(Me2NCH2CH2)[2Nal][Aib]EAG-NH2; linker 1-4-8 via X1)", "remaining at 2 h, 1 µM [%]": 77}
{"molecule": "COc1ccc(C[C@@H]2NC(=O)[C@@H]3CSSC[C@H](NC(=O)CCCCNC(=O)CC[C@@H](C(=O)N[C@@H](CC(N)=O)C(=O)N[C@@H](CC(N)=O)C(N)=O)NC(=O)C(C)(C)NC(=O)[C@H](Cc4ccc5ccccc5c4)NC2=O)C(=O)N[C@@H](CC(N)=O)C(=O)N[C@@H]([C@@H](C)O)C(=O)N[C@@H](Cc2c[nH]c4ccccc24)C(=O)N[C@@H](CCC(N)=O)C(=O)N3)cc1 [compound 1] ([Ava]CNTWQCY(Me)[2Nal][Aib]ENN-NH2; disulfide 2-7; lactam N-11)", "remaining at 2 h, 1 µM [%]": 74}

Then this molecule:
Q) Return the recorded remaining at 2 h, 1 µM value; entry: C[C@@H](O)[C@@H]1NC(=O)[C@H](CC(N)=O)NC(=O)[C@@H]2CSSC[C@H](NC(=O)[C@H](CCC(N)=O)NC(=O)[C@H](Cc3c[nH]c4ccccc34)NC1=O)C(=O)N[C@@H](Cc1ccc(OCCN(C)C)cc1)C(=O)N[C@@H](Cc1ccc3ccccc3c1)C(=O)NC(C)(C)C(=O)N[C@H](C(=O)N[C@@H](CC(N)=O)C(=O)N[C@@H](CC(N)=O)C(N)=O)CCCCN(C)C(=O)CCC(=O)N2
A) 52

---

Test system: Pancreatin
Experiment: Protease stability in simulated intestinal fluid (Pancreatin-SIF, FaSSIF)
Assay type: in vitro ADME
Conditions: 120 min, 1 μM peptide, 37° C., read-out: FaSSIF 120 (min), remaining percent of peptide
Procedure: Studies were carried out in simulated intestinal fluid (SIF) and simulated gastric fluid (SGF) to evaluate gastric stability of the peptide compounds disclosed herein. […] To 76 μL of the Pepsin-SGF buffer, 4 μL of the 20 µM peptide stock solution was added and incubated at 37° C. […] The samples were centrifuged for 20 minutes and an aliquot of the supernatant 100 μL were transferred to a LoBind-MTP plate and analyzed by LCMS/MS. […]
Positions of bridges follow the written chain, without caps; N, C: chain ends. Non-standard residues stand in square brackets, D forms with d. Residues, ends and D or L forms follow the SMILES beside them. *: point of attachment. Trp(7-Me) = Cc1cccc2c(C[C@H](N)C(=O)O)c[nH]c12; 2Nal = N[C@@H](Cc1ccc2ccccc2c1)C(=O)O; 3Pal = N[C@@H](Cc1cccnc1)C(=O)O; Thp = NC1(C(=O)O)CCOCC1; Me2NCH2CH2 = CN(C)CC*; Aib = CC(C)(N)C(=O)O; Ava = NCCCCC(=O)O
The following compounds are shown together with reported remaining at 2 h, 1 µM values.

{"compound": "CC[C@H](C)[C@H](NC(=O)[C@H](Cc1cccnc1)NC(=O)[C@H](CC(N)=O)NC(=O)[C@@H]1CCC(=O)NCCCCC(=O)N[C@H]2CSSC[C@H](NC(=O)[C@H](CCCCNC(C)=O)NC(=O)[C@H](Cc3c[nH]c4ccccc34)NC(=O)[C@H]([C@@H](C)O)NC(=O)[C@H](CC(N)=O)NC2=O)C(=O)N[C@@H](Cc2ccc(OCCN(C)C)cc2)C(=O)N[C@@H](Cc2ccc3ccccc3c2)C(=O)NC(C)(C)C(=O)N1)C(N)=O [compound 37] ([Ava]CNTWK(Ac)CY(Me2NCH2CH2)[2Nal][Aib]EN[3Pal]I-NH2; disulfide 2-7; lactam N-11)", "remaining at 2 h, 1 µM": "79%"}

Then this compound:
Q) Tell me remaining at 2 h, 1 µM of CC(=O)NCCCC[C@@H]1NC(=O)[C@H](Cc2c[nH]c3c(C)cccc23)NC(=O)[C@H]([C@@H](C)O)NC(=O)[C@H](CC(N)=O)NC(=O)[C@@H]2CSSC[C@H](NC1=O)C(=O)N[C@@H](Cc1ccc(OCCN(C)C)cc1)C(=O)N[C@@H](Cc1ccc3ccccc3c1)C(=O)NC1(CCOCC1)C(=O)N[C@H](C(=O)N[C@@H](CC(N)=O)C(=O)N[C@@H](Cc1c[nH]cn1)C(N)=O)CCC(=O)NCCCCC(=O)N2 [compound 21] ([Ava]CNT[Trp(7-Me)]K(Ac)CY(Me2NCH2CH2)[2Nal][Thp]ENH-NH2; disulfide 2-7; lactam N-11) when tested on Pancreatin.
A) 77%
